Assay: Microsomal stability, human liver microsomes
Type: in vitro ADME
Settings: human, microsomes, pH 7.4
measureName: half-life at 1 μM (h)
Report the value in h with no unit label.

Query block: Tell me its half-life at 1 μM given Fc1ccc(-c2cnn3c(NCc4ccccn4)cc(-c4cccnc4)nc23)cc1 as the entry.
Result block: 0.367

Query block: Tell me its half-life at 1 μM given Fc1ccc(-c2cnn3c(NCc4ccccn4)cc(C4=CCCCC4)nc23)cc1 as the entry.
Result block: 1.25

* * *

Assign microsomal CLint at 1 μM to each entry below.
Assay: Microsomal stability, mouse liver microsomes
Type: in vitro ADME
Settings: CD-1, pH 7.4; mouse liver microsomes; read-out: MLM Clint(mic)
Report the value in µL/min/mg with no unit label.

Query block: Tell me its microsomal CLint at 1 μM given CN(C)CC#Cc1ccc(CNc2cc(-c3ccccc3)nc3c(-c4ccc(F)cc4)cnn23)nc1 [Compound 55] as the entry.
Result block: 31

Query block: Tell me its microsomal CLint at 1 μM given Fc1ccc(-c2cnn3c(NCc4ccccn4)cc(C4=CCCC4)nc23)cc1 [Compound 26] as the entry.
Result block: 35

Query block: Tell me its microsomal CLint at 1 μM given Fc1ccc(-c2cnn3c(NCc4ccccn4)cc(-c4ccsc4)nc23)cc1 [Compound 42] as the entry.
Result block: 75

Query block: Tell me its microsomal CLint at 1 μM given COc1ccc(-c2cc(NCc3ccccn3)n3ncc(-c4ccc(F)cc4)c3n2)cc1 [Compound 34] as the entry.
Result block: 22

Query block: Tell me its microsomal CLint at 1 μM given Fc1ccc(-c2cnn3c(NCc4ccccn4)cc(-c4cccnc4)nc23)cc1 [Compound 39] as the entry.
Result block: 112

* * *

Target: hERG (Homo sapiens, UniProt Q12809)
Sequence (Q12809 whole entry): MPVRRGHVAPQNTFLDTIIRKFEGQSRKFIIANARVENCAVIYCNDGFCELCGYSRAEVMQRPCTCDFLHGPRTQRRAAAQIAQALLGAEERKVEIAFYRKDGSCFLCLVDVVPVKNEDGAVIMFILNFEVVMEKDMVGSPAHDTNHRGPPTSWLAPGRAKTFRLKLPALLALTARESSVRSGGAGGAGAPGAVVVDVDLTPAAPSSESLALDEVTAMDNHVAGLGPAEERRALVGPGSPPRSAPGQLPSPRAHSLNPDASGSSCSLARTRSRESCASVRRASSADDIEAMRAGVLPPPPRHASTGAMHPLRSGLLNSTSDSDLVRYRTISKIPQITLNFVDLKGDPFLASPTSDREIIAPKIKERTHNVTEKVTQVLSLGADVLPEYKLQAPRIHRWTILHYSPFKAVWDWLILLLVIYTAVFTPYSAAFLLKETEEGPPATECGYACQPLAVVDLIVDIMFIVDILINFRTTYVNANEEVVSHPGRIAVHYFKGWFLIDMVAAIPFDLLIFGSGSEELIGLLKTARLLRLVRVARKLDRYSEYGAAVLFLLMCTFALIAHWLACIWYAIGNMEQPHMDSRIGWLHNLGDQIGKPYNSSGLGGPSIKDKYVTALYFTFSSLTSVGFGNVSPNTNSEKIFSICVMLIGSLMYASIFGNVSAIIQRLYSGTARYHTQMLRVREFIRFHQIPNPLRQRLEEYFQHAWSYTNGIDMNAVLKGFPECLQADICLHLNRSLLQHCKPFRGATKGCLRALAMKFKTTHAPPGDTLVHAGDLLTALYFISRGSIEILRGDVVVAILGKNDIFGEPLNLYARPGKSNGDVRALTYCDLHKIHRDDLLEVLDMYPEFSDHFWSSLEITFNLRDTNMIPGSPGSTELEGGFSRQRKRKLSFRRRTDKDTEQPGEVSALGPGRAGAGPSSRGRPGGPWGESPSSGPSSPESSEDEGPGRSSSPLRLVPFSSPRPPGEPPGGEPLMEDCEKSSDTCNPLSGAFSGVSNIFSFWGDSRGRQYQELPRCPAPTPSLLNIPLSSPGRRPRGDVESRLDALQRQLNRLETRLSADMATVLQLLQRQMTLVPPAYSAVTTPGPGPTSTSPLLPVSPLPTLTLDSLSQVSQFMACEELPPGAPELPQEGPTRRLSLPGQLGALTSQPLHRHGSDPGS
Experiment: hERG channel blockade, manual patch clamp
Assay type: cell-based
Conditions: cloned hERG potassium channels, 0.3 µM, room temperature, read-out: hERG % inhib. at 0.3 µM
Procedure: Selected compounds were evaluated for hERG channel blockade (Table 4) by WuXi AppTec (Shanghai) Co., Ltd. This was carried out using cloned hERG potassium channels according to their standard manual patch clamp method. Two concentrations (0.3 and 1.0 µM) were tested (at room temperature), and at least three replicates were obtained for each. Amitryptyline was used as a standard.
Class field: derived from inhibition at 0.3 µM; ranges bottom = under 0.7%, middle = from 0.7% up to 4%, top = 4% and over

Query block: # bin lookup: classify COc1ccc(-c2cnn3c(NCc4ccccn4)cc(-c4ccccc4)nc23)cc1 by its inhibition at 0.3 µM
Result block: bottom

Query block: # bin lookup: classify COc1ccnc(CNc2cc(-c3ccccc3)nc3c(-c4ccc(F)cc4)cnn23)c1 by its inhibition at 0.3 µM
Result block: middle

Query block: # bin lookup: classify Fc1ccc(-c2cnn3c(NCc4cc(N5CCCCC5)ccn4)cc(-c4ccccc4)nc23)cc1 by its inhibition at 0.3 µM
Result block: top

Query block: # bin lookup: classify CC(C)c1ccc(-c2cc(NCc3ccccn3)n3ncc(-c4ccc(F)cc4)c3n2)cc1 by its inhibition at 0.3 µM
Result block: middle

Query block: # bin lookup: classify Cc1cccc(-c2cc(NCc3ccccn3)n3ncc(-c4ccc(F)cc4)c3n2)c1 by its inhibition at 0.3 µM
Result block: middle

Query block: # bin lookup: classify Fc1ccc(-c2cnn3c(NCc4ccccn4)cc(-c4ccccc4)nc23)cc1 by its inhibition at 0.3 µM
Result block: bottom

Query block: # bin lookup: classify Fc1ccc(-c2cnn3c(NCc4ccccn4)cc(-c4ccsc4)nc23)cc1 by its inhibition at 0.3 µM
Result block: top

Query block: # bin lookup: classify Fc1ccc(-c2cnn3c(NCc4ccccn4)cc(-c4ccccc4F)nc23)cc1 by its inhibition at 0.3 µM
Result block: top

Query block: # bin lookup: classify CC(C)(C)c1ccc(-c2cc(NCc3ccccn3)n3ncc(-c4ccc(F)cc4)c3n2)cc1 by its inhibition at 0.3 µM
Result block: bottom

Query block: # bin lookup: classify Fc1ccc(-c2cnn3c(NCc4ccc(F)cn4)cc(-c4ccccc4)nc23)cc1 by its inhibition at 0.3 µM
Result block: middle

Query block: # bin lookup: classify COc1ccc(-c2cc(NCc3ccccn3)n3ncc(-c4ccc(F)cc4)c3n2)cc1 by its inhibition at 0.3 µM
Result block: bottom

Query block: # bin lookup: classify Fc1ccc(-c2cnn3c(NCc4ccccn4)cc(-c4cccs4)nc23)cc1 by its inhibition at 0.3 µM
Result block: bottom

Query block: # bin lookup: classify Fc1ccc(-c2cnn3c(NCc4ccccn4)cc(C4CC4)nc23)cc1 by its inhibition at 0.3 µM
Result block: top

Query block: # bin lookup: classify Fc1ccc(-c2cnn3c(NCc4ccccn4)cc(-c4ccc(OC(F)(F)F)cc4)nc23)cc1 by its inhibition at 0.3 µM
Result block: middle

Query block: # bin lookup: classify Fc1ccc(-c2cnn3c(NCc4ccccn4)cc(-c4cccnc4)nc23)cc1 by its inhibition at 0.3 µM
Result block: top
